measured.on: Beta Secretase enzyme (BACE) (Homo sapiens, UniProt P56817)
Sequence (P56817 46-501): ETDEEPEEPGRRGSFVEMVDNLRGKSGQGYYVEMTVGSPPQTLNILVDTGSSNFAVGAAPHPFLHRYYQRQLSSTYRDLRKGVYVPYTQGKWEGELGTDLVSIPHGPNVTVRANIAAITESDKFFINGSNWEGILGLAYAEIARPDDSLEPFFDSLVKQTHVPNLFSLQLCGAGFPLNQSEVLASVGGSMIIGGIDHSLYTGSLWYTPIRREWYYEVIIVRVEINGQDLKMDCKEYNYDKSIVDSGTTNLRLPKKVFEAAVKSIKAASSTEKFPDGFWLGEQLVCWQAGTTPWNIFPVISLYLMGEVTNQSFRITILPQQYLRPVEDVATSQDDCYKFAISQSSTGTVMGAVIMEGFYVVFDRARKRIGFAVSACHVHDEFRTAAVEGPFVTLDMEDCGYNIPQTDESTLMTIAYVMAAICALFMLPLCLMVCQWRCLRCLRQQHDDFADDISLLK
method: In vitro enzymatic BACE FRET (fluorescence resonance energy transfer) assay;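 further: fluorescence read after 1 h with 50 nM quenched peptide substrate spanning the BACE cleavage site, in pH 4.2 acetate buffer containing 10% DMSO and nonionic detergent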
Assay type: biochemical
test.settings: BACE enzyme assay, IC50's in uM; read-out: BACE1 FRET assay
Give measured IC50 for each item. Keep answers brief.

Solved entries (count: 3):
> print(dat)
                    structure.smiles.string  reported.measurement
1  CC(=S)N[C@@H](Cc1cccc(-c2nccs2)c1)[C@H](O)CN[C@H]1CC2(CCC2)Oc2ncc(CC(C)(C)C)cc21               0.03 µM
2  COCC(=O)N[C@@H](Cc1cc(F)cc(-c2nccs2)c1)[C@H](O)CN[C@H]1CC2(CCC2)Oc2cnc(CC(C)(C)C)cc21              0.015 µM
3  CC(C)(C)Cc1cnc2c(c1)[C@@H](NC[C@@H](O)[C@H](Cc1ccc(F)cc1)NC(=O)[C@H]1CN(Cc3cscn3)CCO1)CC1(CCC1)O2              0.017 µM

Take each entry in turn and give its IC50.
1. CO[C@H](C)C(=O)N[C@@H](Cc1cc(F)cc(-c2nccs2)c1)[C@H](O)CN[C@H]1CC2(CCC2)Oc2ccc(CC(C)C)cc21
2. CO[C@H](C)C(=O)N[C@@H](Cc1cccc(-c2nccs2)c1)[C@H](O)CN[C@H]1CC2(CCC2)Oc2ncc(CC(C)C)cc21
3. CO[C@H](C)C(=O)N[C@@H](Cc1ccc(F)c(-c2nccs2)c1)[C@H](O)CN[C@H]1CC2(CCC2)Oc2ncc(CC(C)C)cc21

(A)
1. 0.01 µM
2. 0.014 µM
3. 0.022 µM
